So I've got a bunch of compounds here, and I need their ED values.
Test system: Rattus norvegicus
Assay: Tested in vivo for antidiuretic potency injected intraperitoneally in rats under ethanol anesthesia
Type: ADME, organism-based, Urine
Conditions: ip
Starred links: 1 amine or outer side, 2 acyl side, 3 side chain; linkers in the order of their positions; H or OH if unused. Positions of bridges follow the written chain, without caps; N, C: chain ends. Non-standard residues stand in square brackets, D forms with d. Residues, ends and D or L forms follow the SMILES beside them. *: point of attachment. X1 = O=C(CC1(S[*:2])CCCCC1)[*:1]; iPr = CC(C)*
Answers are plain numbers, in nM/kg.

compound	ED [nM/kg]
CC(C)Oc1ccc(C[C@@H]2NC(=O)CC3(CCCCC3)SSC[C@@H](C(=O)N3CCC[C@H]3C(=O)N[C@@H](CCCN=C(N)N)C(=O)NCC(N)=O)NC(=O)[C@H](CC(N)=O)NC(=O)[C@H](C(C)C)NC(=O)[C@H](Cc3ccccc3)NC2=O)cc1 (Y(iPr)FVNCPRG-NH2; linker N-5 via X1)	3.6
CC(C)Oc1ccc(C[C@@H]2NC(=O)CC3(CCCCC3)SSC[C@@H](C(=O)N3CCC[C@H]3C(=O)N[C@H](CCCN=C(N)N)C(=O)NCC(N)=O)NC(=O)[C@H](CC(N)=O)NC(=O)[C@H](C(C)C)NC(=O)[C@H](Cc3ccccc3)NC2=O)cc1 (Y(iPr)FVNCP[dR]G-NH2; linker N-5 via X1)	8.5
COc1ccc(C[C@@H]2NC(=O)CC3(CCCCC3)SSC[C@@H](C(=O)N3CCC[C@H]3C(=O)N[C@@H](CCCN=C(N)N)C(=O)NCC(N)=O)NC(=O)[C@H](CC(N)=O)NC(=O)[C@H](C(C)C)NC(=O)[C@H](Cc3ccccc3)NC2=O)cc1 (Y(Me)FVNCPRG-NH2; linker N-5 via X1)	3.1

Continue with the next compound.
Query (compound): COc1ccc(C[C@@H]2NC(=O)CC3(CCCCC3)SSC[C@@H](C(=O)N3CCC[C@H]3C(=O)N[C@H](CCCN=C(N)N)C(=O)NCC(N)=O)NC(=O)[C@H](CC(N)=O)NC(=O)[C@H](C(C)C)NC(=O)[C@H](Cc3ccccc3)NC2=O)cc1 (Y(Me)FVNCP[dR]G-NH2; linker N-5 via X1) ; field requested: ED
15

====

Test system: Rattus norvegicus
Test: Tested in vivo for antidiuretic potency injected intraperitoneally in rats under ethanol anesthesia
Assay type: ADME, organism-based, Urine
Conditions: ip
Starred links: 1 amine or outer side, 2 acyl side, 3 side chain; linkers in the order of their positions; H or OH if unused. Positions of bridges follow the written chain, without caps; N, C: chain ends. Non-standard residues stand in square brackets, D forms with d. Residues, ends and D or L forms follow the SMILES beside them. X1 = O=C(CC1(S[*:2])CCCCC1)[*:1]
I'd be grateful if you could share measured ED for these entries.
Answers are plain numbers, in nM/kg.

Worked cases, answers included:
compound	experimentalReadout	dataValue
CCCOc1ccc(C[C@@H]2NC(=O)CC3(CCCCC3)SSC[C@@H](C(=O)N3CCC[C@H]3C(=O)N[C@@H](CCCN=C(N)N)C(=O)NCC(N)=O)NC(=O)[C@H](CC(N)=O)NC(=O)[C@H](C(C)C)NC(=O)[C@H](Cc3ccccc3)NC2=O)cc1	ED	3.5
CCOc1ccc(C[C@@H]2NC(=O)CC3(CCCCC3)SSC[C@@H](C(=O)N3CCC[C@H]3C(=O)N[C@@H](CCCN=C(N)N)C(=O)NCC(N)=O)NC(=O)[C@H](CC(N)=O)NC(=O)[C@H](C(C)C)NC(=O)[C@H](Cc3ccccc3)NC2=O)cc1 (Y(Et)FVNCPRG-NH2; linker N-5 via X1)	ED	1.9

Your task in this section: give ED for each listed record.
1. CCCOc1ccc(C[C@@H]2NC(=O)CC3(CCCCC3)SSC[C@@H](C(=O)N3CCC[C@H]3C(=O)N[C@H](CCCN=C(N)N)C(=O)NCC(N)=O)NC(=O)[C@H](CC(N)=O)NC(=O)[C@H](C(C)C)NC(=O)[C@H](Cc3ccccc3)NC2=O)cc1
2. CCOc1ccc(C[C@@H]2NC(=O)CC3(CCCCC3)SSC[C@@H](C(=O)N3CCC[C@H]3C(=O)N[C@H](CCCN=C(N)N)C(=O)NCC(N)=O)NC(=O)[C@H](CC(N)=O)NC(=O)[C@H](C(C)C)NC(=O)[C@H](Cc3ccccc3)NC2=O)cc1 (Y(Et)FVNCP[dR]G-NH2; linker N-5 via X1)

1. 14
2. 5.7
